Tested on: 777334-354-R2-J4-PDC tumor spheroids with HUVEC/MSC, viability
Experiment: Anticancer human tumor 777334-354-R2-J4-PDC patient-derived pancreatic adenocarcinoma cell line growth inhibition [GQUAD]
Settings: second compound 3.16 µM; first compound 1 µM; active compounds read low
Measurement Kind: viability, T/C (%)
One number for each entry, in %.

Example results:
| Compound | Measured Target | Unit Abbrev | viability, T/C |
| --- | --- | --- | --- |
| COc1cc(C2c3cc4c(cc3C(OC3OC5COC(C)OC5C(O)C3O)C3COC(=O)C23)OCO4)cc(OC)c1O (stereo not given) + Cc1[nH]c2ccc(F)cc2c1-c1nc2c3cccnc3c3ncccc3c2[nH]1 | 777334-354-R2-J4-PDC tumor spheroids with HUVEC/MSC, viability | % | 22.4 |
| O=c1[nH]cc(F)c(=O)[nH]1 + CN(C)c1ccc(Nc2c3ccc(NC(=O)CCN4CCCC4)cc3nc3cc(NC(=O)CCN4CCCC4)ccc23)cc1 | 777334-354-R2-J4-PDC tumor spheroids with HUVEC/MSC, viability | % | 77.8 |
| O=C(NO)c1cnc(N2CCN(S(=O)(=O)c3ccc4ccccc4c3)CC2)nc1 + CN(C)c1ccc(Nc2c3ccc(NC(=O)CCN4CCCC4)cc3nc3cc(NC(=O)CCN4CCCC4)ccc23)cc1 | 777334-354-R2-J4-PDC tumor spheroids with HUVEC/MSC, viability | % | 54 |
| CC(C)n1c(=O)n(C)c2cnc3cc(F)c(-c4ccc(OCCCN5CCCCC5)nc4)cc3c21 + CN(C)c1ccc(Nc2c3ccc(NC(=O)CCN4CCCC4)cc3nc3cc(NC(=O)CCN4CCCC4)ccc23)cc1 | 777334-354-R2-J4-PDC tumor spheroids with HUVEC/MSC, viability | % | 83.2 |

Task: If you can, please state the reported viability, T/C value of Cc1cccc(N(C)C(=O)C2C(O)CCN2c2nc(C)cc(C(F)(F)F)c2C#N)c1 (stereo not given) + CN(C)c1ccc(Nc2c3ccc(NC(=O)CCN4CCCC4)cc3nc3cc(NC(=O)CCN4CCCC4)ccc23)cc1 .
Output: 75.3

* * *

For each of the compounds below, state its viability, T/C.
Tested on: 777334-354-R2-J4-PDC tumor spheroids with HUVEC/MSC, viability
Assay: Anticancer human tumor 777334-354-R2-J4-PDC cell line growth inhibition [GQUAD];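 also: spheroids exposed to compounds for 7 days before readout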
Settings: second compound 0.316 µM; first compound 3.16 µM; active compounds read low
Text: DNA G-quadruplex Stabilizer Agents in Combinations in Complex Spheroids A high-throughput screen of multi-cell type tumor spheroids was designed to identify active combinations of DNA G-quadruplex stabilizer agents and targeted small molecules. […] Compounds. […] If the clinical Cmax for an agent had not been determined, the highest concentration tested was 10 microM. […]
Numbers only, in %.

Example results:
| Compound | Measured Target | Unit Abbrev | Quantitative Readout |
| --- | --- | --- | --- |
| C=CC(=O)N1CCN(c2nc(=O)n(-c3c(C)ccnc3C(C)C)c3nc(-c4c(O)cccc4F)c(F)cc23)C(C)C1 (stereo not given) + CN(C)c1ccc(Nc2c3ccc(NC(=O)CCN4CCCC4)cc3nc3cc(NC(=O)CCN4CCCC4)ccc23)cc1 | 777334-354-R2-J4-PDC tumor spheroids with HUVEC/MSC, viability | % | 106 |
| CCCS(=O)(=O)Nc1ccc(F)c(C(=O)c2c[nH]c3ncc(-c4ccc(Cl)cc4)cc23)c1F + CN(C)c1ccc(Nc2c3ccc(NC(=O)CCN4CCCC4)cc3nc3cc(NC(=O)CCN4CCCC4)ccc23)cc1 | 777334-354-R2-J4-PDC tumor spheroids with HUVEC/MSC, viability | % | 152 |
| Nc1ccn(C2OC(CO)C(O)C2(F)F)c(=O)n1 (stereo not given) + CN(C)c1ccc(Nc2c3ccc(NC(=O)CCN4CCCC4)cc3nc3cc(NC(=O)CCN4CCCC4)ccc23)cc1 | 777334-354-R2-J4-PDC tumor spheroids with HUVEC/MSC, viability | % | 33.2 |

Please supply viability, T/C for each of the following items, keeping them in order.
1. Cc1cccc(N(C)C(=O)C2C(O)CCN2c2nc(C)cc(C(F)(F)F)c2C#N)c1 (stereo not given) + Cc1cnc(CNC(=O)c2c(=O)c3ccc(N4CCCN(C)CC4)nc3n3c2sc2ccccc23)cn1
2. COc1cccc2c1C(=O)c1c(O)c3c(c(O)c1C2=O)CC(O)(C(=O)CO)CC3OC1CC(N)C(O)C(C)O1 (stereo not given) + Cc1[nH]c2ccc(F)cc2c1-c1nc2c3cccnc3c3ncccc3c2[nH]1
3. O=C(c1cc(Cc2n[nH]c(=O)c3ccccc23)ccc1F)N1CCN(C(=O)C2CC2)CC1 + Cc1cnc(CNC(=O)c2c(=O)c3ccc(N4CCCN(C)CC4)nc3n3c2sc2ccccc23)cn1
4. CC(=O)O[C@H]1C(=O)[C@@]2(C)[C@H]([C@H](OC(=O)c3ccccc3)[C@]3(O)C[C@H](OC(=O)[C@H](O)[C@@H](NC(=O)c4ccccc4)c4ccccc4)C(C)=C1C3(C)C)[C@]1(OC(C)=O)CO[C@@H]1C[C@@H]2O + Cc1cnc(CNC(=O)c2c(=O)c3ccc(N4CCCN(C)CC4)nc3n3c2sc2ccccc23)cn1
5. O=C(NO)c1cnc(N2CCN(S(=O)(=O)c3ccc4ccccc4c3)CC2)nc1 + Cc1cnc(CNC(=O)c2c(=O)c3ccc(N4CCCN(C)CC4)nc3n3c2sc2ccccc23)cn1
6. CCCS(=O)(=O)Nc1ccc(F)c(C(=O)c2c[nH]c3ncc(-c4ccc(Cl)cc4)cc23)c1F + Cc1[nH]c2ccc(F)cc2c1-c1nc2c3cccnc3c3ncccc3c2[nH]1

Output:
80.7
28.4
74.3
64.2
5.34
117

Please supply viability, T/C for each of the following items, keeping them in order.
1. CC1COCCN1c1cc(-c2ccnn2C)c2ccnc(-c3ccn[nH]3)c2n1 (stereo not given) + Cc1[nH]c2ccc(F)cc2c1-c1nc2c3cccnc3c3ncccc3c2[nH]1
2. Nc1ccn(C2OC(CO)C(O)C2(F)F)c(=O)n1 (stereo not given) + Cc1[nH]c2ccc(F)cc2c1-c1nc2c3cccnc3c3ncccc3c2[nH]1

Output:
[39.5, 39.8]

Please supply viability, T/C for each of the following items, keeping them in order.
1. CC1COCCN1c1cc(C2(O)CC3CCC(C2)O3)c2cnn(-c3ccn[nH]3)c2n1 (stereo not given) + CN(C)c1ccc(Nc2c3ccc(NC(=O)CCN4CCCC4)cc3nc3cc(NC(=O)CCN4CCCC4)ccc23)cc1
2. C#Cc1c(F)ccc2cc(O)cc(-c3ncc4c(N5CC6CCC(C5)N6)nc(OCC56CCCN5CC(F)C6)nc4c3F)c12 (stereo not given) + CN(C)c1ccc(Nc2c3ccc(NC(=O)CCN4CCCC4)cc3nc3cc(NC(=O)CCN4CCCC4)ccc23)cc1
3. COc1cc(C2c3cc4c(cc3C(OC3OC5COC(C)OC5C(O)C3O)C3COC(=O)C23)OCO4)cc(OC)c1O (stereo not given) + Cc1cnc(CNC(=O)c2c(=O)c3ccc(N4CCCN(C)CC4)nc3n3c2sc2ccccc23)cn1
4. C=CCn1c(=O)c2cnc(Nc3ccc(N4CCN(C)CC4)cc3)nc2n1-c1cccc(C(C)(C)O)n1 + Cc1cnc(CNC(=O)c2c(=O)c3ccc(N4CCCN(C)CC4)nc3n3c2sc2ccccc23)cn1
5. CCCS(=O)(=O)Nc1ccc(F)c(C(=O)c2c[nH]c3ncc(-c4ccc(Cl)cc4)cc23)c1F + Cc1cnc(CNC(=O)c2c(=O)c3ccc(N4CCCN(C)CC4)nc3n3c2sc2ccccc23)cn1

Output:
1: 33.4; 2: 26.5; 3: 51.4; 4: 39.5; 5: 93.3

Please supply viability, T/C for each of the following items, keeping them in order.
1. O=C(NO)c1cnc(N2CCN(S(=O)(=O)c3ccc4ccccc4c3)CC2)nc1 + Cc1[nH]c2ccc(F)cc2c1-c1nc2c3cccnc3c3ncccc3c2[nH]1
2. COc1ncnc(C2CC2)c1-c1ncc2cnn(Cc3ccc(-c4nc(C(F)(F)F)cn4C(C)C)cc3)c2n1 + CN(C)c1ccc(Nc2c3ccc(NC(=O)CCN4CCCC4)cc3nc3cc(NC(=O)CCN4CCCC4)ccc23)cc1
3. C#Cc1c(F)ccc2cc(O)cc(-c3ncc4c(N5CC6CCC(C5)N6)nc(OCC56CCCN5CC(F)C6)nc4c3F)c12 (stereo not given) + Cc1[nH]c2ccc(F)cc2c1-c1nc2c3cccnc3c3ncccc3c2[nH]1

Output:
1: 22; 2: 109; 3: 21

Task: If you can, please state the reported viability, T/C value of COc1cccc2c1C(=O)c1c(O)c3c(c(O)c1C2=O)CC(O)(C(=O)CO)CC3OC1CC(N)C(O)C(C)O1 (stereo not given) + CN(C)c1ccc(Nc2c3ccc(NC(=O)CCN4CCCC4)cc3nc3cc(NC(=O)CCN4CCCC4)ccc23)cc1 .
Output: 23.6
